Tested on: HS 578T breast
Assay: NCI-60 one-dose screen, 48 h (100 = growth as untreated, 0 = no growth, -100 = all killed)
Conditions: 10 µM unless noted
Protocol: Growth inhibition of the HS 578T human tumor cell line is measured as a screen for anti-cancer activity. Cells are grown in 96 well plates and exposed to the test compound for 48 hours. Compounds are tested at a single concentration, which is 10^-5 M for most compounds. The reported endpoint is percent growth (GI% or GIPRCNT), where numbers from 0 - 100% represent growth inhibition, and numbers from -100% - 0 represent cell death. For example, a value of 40 represents 60% growth inhibition. […]
About 83,000 compounds went through this panel and 20% of them were active in at least one assay; those are over-represented in the sample as a whole.
Experimental Readout: growth (%)

| Molecule | Experimental Readout | Reading |
| --- | --- | --- |
| O=S(=O)(c1nc(-c2ccc(Br)cc2)oc1-c1ccc(Cl)cc1)N1CCCC(O)C1 (stereo not given) | growth | 82.1 |
| CC1=C(C(=O)Nc2ccccc2)C(c2cccc3ccccc23)n2c(nc3ccccc32)N1 (stereo not given) | growth | -13.9 |
| O=C(N/N=C/c1c[nH]c2ccccc12)Nc1ccccc1Cl | growth | 8.49 |
| O=C(/C=C1\C(=O)N(Cc2ccccc2)c2ccccc21)c1cc2ccccc2oc1=O | growth | 89.3 |
| COc1ccc(C2=NN(C(=O)[C@H]3[C@@H](c4ccco4)c4sc(=O)[nH]c4S[C@@H]3C)C(c3ccc4ccccc4c3)C2)cc1 (stereo not given in full) | growth | 29.6 |

###

Test system: ACHN renal
Assay: NCI-60 one-dose screen, 48 h
Conditions: 10 µM unless noted
The panel holds about 83,000 compounds, 20% with a hit somewhere; the sample as a whole holds those more often. Calls of active or inactive are those of the source. Rule for the calls: active = growth percent below 10; inactive = the rest.
Classes used: y for active, n for inactive

| Compound | System | Assigned Class |
| --- | --- | --- |
| N#Cc1cc(-c2ccnc(Nc3ccc(N4CCN(C5COC5)CC4)cc3)n2)ccc1N1CCCC1 | ACHN renal | n |
| CC(Nc1ncnc2ccc(-c3ccc4oc(N)nc4c3)cc12)c1ccccc1 (configuration not stated) | ACHN renal | y |
| O=C(Nc1nc2ccc([N+](=O)[O-])cc2s1)Nc1ccccc1F | ACHN renal | y |
| CC1=C(C(=O)Nc2ccccc2)C(c2ccc3ccccc3c2)n2c(nc3ccccc32)N1 (configuration not stated) | ACHN renal | n |
| COc1ccc(-n2c(NC(=O)N3CCN(C)CC3)c(C#N)c3ccccc32)cc1 | ACHN renal | n |
| COc1cc2cc(C(=O)N3C[C@@H](CCl)c4c3cc(OC(=O)N(CCC(=O)N3CCN(C)CC3)[C@H]3CCSSC3)c3ccccc43)[nH]c2c(OC)c1OC | ACHN renal | y |
| O=C(CSc1nnc(-c2ccc(-c3nc4ccccc4[nH]3)cc2)o1)Nc1ccc(Cl)cc1 | ACHN renal | y |
| Cc1ccc(Cl)cc1NC(=O)Nc1nc2ccc([N+](=O)[O-])cc2s1 | ACHN renal | y |
| COc1ccc2[nH]c(O)c(N=Nc3nc(-c4ccccc4)cs3)c2c1 | ACHN renal | y |
| CCC(=O)c1c2c(c3ccc4c5ccccc5ccc4n13)C(=O)c1ccccc1C2=O | ACHN renal | n |
| COc1ccc(-c2nnc3c(/C=C/c4ccc(Br)cc4)nc4ccccc4n23)cc1 | ACHN renal | n |
| O=C(N/N=C/c1ccc(B(O)O)s1)c1[nH]c2ccc(Br)cc2c1-c1ccccc1 | ACHN renal | y |
| Cc1oc(-c2ccccc2)nc1CN[C@@H]1C[C@@H]2C[C@H]([C@H]1C)C2(C)C | ACHN renal | n |
| OC1CCC(Cn2c(C(F)(F)F)cc3c(Cl)ncnc32)CC1 (configuration not stated) | ACHN renal | y |
| CCN1CCN(Cc2ccc(C(=O)Nc3cccc(Nc4ccc5c(OC)cccc5n4)c3)cc2C(F)(F)F)CC1 | ACHN renal | y |
| CS(=O)(=O)Nc1cccc(-n2cnc3cc(-c4ccc(O)cc4)ccc32)c1 | ACHN renal | n |
| COc1ccc2c(c1)C(Sc1ccc(Br)cc1)c1c(nc(N)c(C#N)c1N)O2 (configuration not stated) | ACHN renal | n |
| CCc1ccc(SC2c3cc(OC)ccc3Oc3nc(N)c(C#N)c(N)c32)cc1 (configuration not stated) | ACHN renal | y |
| Nc1nc2cc(-c3ccc4ncnc(NCc5ccccc5)c4c3)ccc2o1 | ACHN renal | y |
| COc1ccc(OC)c(Cn2cc(C#N)c(N)c2C(=O)c2ccc(Br)cc2)c1 | ACHN renal | n |
| CCOc1ccccc1[C@H]1C(C(=O)c2ccc(Cl)cc2)C2(N[C@@H]1c1ccccc1)C(=O)Nc1ccc(Cl)cc12 (some centres not stated) | ACHN renal | n |
| O=C1/C(=C/c2cnc(-c3ccccc3)s2)SC(=S)N1Cc1ccc2c(c1)OCO2 | ACHN renal | n |
| CS(=O)(=O)Nc1cc(-c2ccc3ncnc(N4CCc5cc(F)c(Cl)cc54)c3c2)cnc1Cl | ACHN renal | y |
| CCCSc1nnc(-c2c(C)nc3sccn23)o1 | ACHN renal | n |
| O=C1/C(=C/c2cccc3c2OCO3)Cc2c(F)cc(Br)cc21 | ACHN renal | n |
| Cn1cc(-c2cc(N)n3nc(-c4c[nH]c5ccc(Cl)cc45)cc3n2)c2cc(Br)cnc21 | ACHN renal | y |
| Cc1ccc(C(=O)Nc2cc(-n3cnc(F)c3)cc(C(F)(F)F)c2)cc1C#Cc1cnc2cccnn12 | ACHN renal | n |
| CC(C)(C)C(=O)c1c2c(c3ccc4c5ccccc5ccc4n13)C(=O)c1ccccc1C2=O | ACHN renal | n |
| O=C1c2cccc3c(N4CCN(Cc5ccccc5)CC4)ccc(c23)C(=O)N1c1cccc(-c2nn(-c3ccccc3)cc2-c2nc3ccccc3s2)c1 | ACHN renal | n |
| O=C(NN1C(=O)/C(=C/C=C/c2ccc([N+](=O)[O-])o2)SC1=S)c1ccc([N+](=O)[O-])cc1 | ACHN renal | y |
| N#Cc1c(-c2ccc(F)cc2)nc(SCc2ccccc2)nc1N1CCNCC1 | ACHN renal | y |
| Clc1ccccc1Nc1nnc(-c2c[nH]c3ccccc23)o1 | ACHN renal | n |
| O=C1N/C(=N\c2nccs2)S/C1=C\c1ccc([N+](=O)[O-])cc1 | ACHN renal | n |
| Cc1nn(-c2ccccc2)c2nc(C)n(CC(=O)N/N=C/c3ccccc3O)c(=O)c12 | ACHN renal | n |
| COc1ccc(-c2cc(C(=O)N=Nc3c(O)[nH]c4ccc(Cl)cc34)c3ccccc3n2)cc1 | ACHN renal | y |
| COc1nc(N)ncc1-c1ccc2ncnc(N3CCc4cc(F)c(Cl)cc43)c2c1 | ACHN renal | y |
| COc1cncc(-c2ccc3ncnc(N4CCc5ccc(Cl)cc54)c3c2)c1 | ACHN renal | n |
